B1: KRT34 (parent)
chain: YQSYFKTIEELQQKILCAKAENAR

# Variants of: B1
# EXPERIMENTAL_DETAILS: protein stability index of a GFP-peptide fusion (GPS, HEK-293T) (PSI 1-6); higher = more stable;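 further: lentivirally expressed fusions sorted by FACS into six bins by GFP to DsRed ratio, PSI derived from sequencing read proportions per bin multiplied by bin number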
# CONDITION_LABEL: c terminus: a fixed tail appended
Entries and their protein stability index
Respond using a number only.

• K6Y = 1.66

Ask | Give the reported protein stability index for this variant. A18V
Reply | 1.88

Ask | Give the reported protein stability index for this variant. E10L
Reply | 1.91

Reference source for all entries: the supplement of paper PMC10567573
